Task for the reader: assign each of the following variants its reported self-cleavage.
B1: OR4K15 (parent)
chain: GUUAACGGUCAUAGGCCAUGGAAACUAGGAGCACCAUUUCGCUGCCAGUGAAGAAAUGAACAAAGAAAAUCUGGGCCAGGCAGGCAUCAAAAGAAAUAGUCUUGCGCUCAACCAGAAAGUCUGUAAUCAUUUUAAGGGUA

- Variants of: B1
- protocol: self-cleavage, relative activity (ratio to wild type); higher = more cleavage; in vitro, sequencing; the parent is a self-cleaving ribozyme
A bare number is all that is needed in reply.

Lookup: Give its self-cleavage value. Item: G15A A94G
Found: 1.73

Lookup: Check A90G A117U too.
Found: 1.07

Lookup: Check A60G A135U too.
Found: 1.41

Lookup: Check U57C C121U too.
Found: 2.46

Lookup: Check A63G A67G too.
Found: 1.6

Lookup: Check A23G U139C too.
Found: 1.26

Lookup: Check U87C U100C too.
Found: 2.72

Lookup: Check A5G U139A too.
Found: 1.6

Lookup: Check A13U A116U too.
Found: 0.25

Lookup: Check C105U U122C too.
Found: 0.11

Lookup: Check G21A A78U too.
Found: 0.86

Lookup: Check A64G A140G too.
Found: 1.47

Lookup: Check A64G A118U too.
Found: 0.97

Lookup: Check A67U A96G too.
Found: 1.65

Lookup: Check G21U U122A too.
Found: 1.42

Lookup: Check A56G U132A too.
Found: 2.05

Lookup: Check G15U A62G too.
Found: 2.71

Lookup: Check A51U U100C too.
Found: 2.13

Lookup: Check U2C A30C too.
Found: 1.44

Lookup: Check G41C A66U too.
Found: 1.25

Lookup: Check U70C U97C too.
Found: 0.68

Lookup: Check A126G U132C too.
Found: 1.07

Lookup: Check U39G A89G too.
Found: 1.18

Lookup: Check U9C U19G too.
Found: 2.03

Lookup: Check A94U A96G too.
Found: 1.29

Lookup: Check A52G A62C too.
Found: 1.53

Lookup: Check U87A A126G too.
Found: 1.66

Lookup: Check A23G A91G too.
Found: 0.7

Lookup: Check U122C A140G too.
Found: 1.32

Lookup: Check U39C A69G too.
Found: 1.37

Lookup: Check A78G U130G too.
Found: 0

Lookup: Check A27U U39A too.
Found: 1.49

Lookup: Check U43A A135G too.
Found: 1.91

Lookup: Check A56C A117U too.
Found: 0.96

Lookup: Check A60U U127C too.
Found: 0.92

Lookup: Check A64U U100A too.
Found: 0.29

Lookup: Check A89G A116G too.
Found: 0.7

Lookup: Check A92U U132C too.
Found: 0.8

Lookup: Check A55G G74U too.
Found: 0.1

Lookup: Check A11U A116G too.
Found: 1

Lookup: Check A24G A110C too.
Found: 0.55

Lookup: Check U87A A129C too.
Found: 0.8

Lookup: Check A86G G137A too.
Found: 1.83

Lookup: Check U9G U100C too.
Found: 1.91

Lookup: Check C6U U100C too.
Found: 1.18

Lookup: Check U9A U122A too.
Found: 1.22
